Ref: patent US20260184815A1

- test-system: T1, human plasma kallikrein (human, UniProt P03952 20-390; P03952 391-638)
- T1 construct: also called pKal; Human pKal
- T1 sequence (P03952 20-390, chain 1 of 2): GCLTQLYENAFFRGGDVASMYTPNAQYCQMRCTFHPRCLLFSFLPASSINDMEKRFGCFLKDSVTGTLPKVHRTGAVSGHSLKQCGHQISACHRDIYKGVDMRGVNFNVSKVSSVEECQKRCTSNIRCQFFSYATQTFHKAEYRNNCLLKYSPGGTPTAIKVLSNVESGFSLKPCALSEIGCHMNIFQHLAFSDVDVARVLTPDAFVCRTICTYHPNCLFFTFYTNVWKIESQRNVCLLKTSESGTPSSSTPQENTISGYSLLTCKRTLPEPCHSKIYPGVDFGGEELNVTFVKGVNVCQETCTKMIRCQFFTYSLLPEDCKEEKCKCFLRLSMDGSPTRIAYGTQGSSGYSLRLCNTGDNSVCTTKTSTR
- T1 sequence (P03952 391-638, chain 2 of 2): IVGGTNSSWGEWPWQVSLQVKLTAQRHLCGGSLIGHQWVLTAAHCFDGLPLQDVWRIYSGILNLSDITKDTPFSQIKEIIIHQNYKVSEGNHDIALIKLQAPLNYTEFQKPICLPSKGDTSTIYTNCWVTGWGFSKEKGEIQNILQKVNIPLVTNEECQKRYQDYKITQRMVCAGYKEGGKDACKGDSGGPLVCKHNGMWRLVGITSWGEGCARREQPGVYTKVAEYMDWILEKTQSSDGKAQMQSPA
- assay-details: ELISA, biotinylated pKal signal over streptavidin background
reported-endpoint: ELISA (T/B)
Kindly answer with a numeric value in T/B, unit omitted.

# get_value(readout='ELISA (T/B)', item= M9-H02 (Fab, V domains shown, HC as printed runs into CH1) VH: EVQLLESGGGLVQPGGSLRLSCAASGFTFSAYMMIWVRQAPGKGLEWVSVIYPSGGVTMYADSVKGRFTISRDNSKNTLYLQMNSLRAEDTAVYYCARGTVGASDAFDIWGQGTMVTVSS VL: DIQMTQSPSSLSASVGDRVIITCRASRSIATYLNWYQQKPGKAPNLLIFGASTLQSGVPSRFSGSGSGTDFTLTISDLQPEDFATYYCQQSFSDPYTFGQGTNLEMK )
3.5

# get_value(readout='ELISA (T/B)', item= M12-B04 (Fab, V domains shown, HC as printed runs into CH1) VH: EVQLLESGGGLVQPGGSLRLSCAASGFTFSLYSMYWVRQAPGKGLEWVSRIRPSGGGTVYADSVKGRFTISRDNSKNTLYLQMNSLRAEDTAVYYCARDPLYSSGDVWGQGTTVTVSS VL: DIQMTQSPSSLSASVGDRVTITCRASQGIRNDLGWYQHKPGKAPKLLIYAASILQSGVPSRFSGTASGTDFTLTISSLQPEDFATYFCLQDYEYPLTFGGGTKLDIK )
18

# get_value(readout='ELISA (T/B)', item= M9-C08 (Fab, V domains shown, HC as printed runs into CH1) VH: EVQLLESGGGLVQPGGSLRLSCAASGFTFSHYGMVWVRQAPGKGLEWVSYIVPSGGLTYYADSVKGRFTISRDNSKNTLYLQMNSLRAEDTAVYYCARVDYTGDGLGYWGQGTLVTVSS VL: DIQMTQSPSSLSASVGDRVTITCRASQSISIYVNWYQQKPGKAPNLLIFAASSLQRGVPSRFSGSGSGADFTLTISSLQPEDFATYYCQQSFSTPLTFGGGTKVEIK )
10.9

# get_value(readout='ELISA (T/B)', item= M28-F01 (Fab, V domains shown, HC as printed runs into CH1) VH: EVQLLESGGGLVQPGGSLRLSCAASGFTFSVYLMHWVRQAPGKGLEWVSGISPSGGYTQYADSVKGRFTISRDNSKNTLYLQMNSLRAEDTAVYYCARPGGLDAFDIWGQGTMVTVSS VL: DIQMTQSPSSLSASVGDRVTITCRASQSINTYLNWYQQKPGKAPKVLIHAASTLESGVPSRFSGSGSGTDFTLTISSLQPEDFATYYCQQSYSTPPTFGQGTKVEIK )
1.5

# get_value(readout='ELISA (T/B)', item= M9-E04 (Fab, V domains shown, HC as printed runs into CH1) VH: EVQLLESGGGLVQPGGSLRLSCAASGFTFSEYDMMWVRQAPGKGLEWVSSIGSSGGMTYYADSVKGRFTISRDNSKNTLYLQMNSLRAEDTAVYYCARDQVAAAAIDYWGQGTLVTVSS VL: DIQMIQSPSSLSASVGDRVTITCRASQSISGYLNWYQQRSGKAPKLLIFAASNLQTGVPSRFSGSGSGTDFTLTINNLQPEDFATYYCQQSHTPPKTFGPGTKVDIK )
18.8

# get_value(readout='ELISA (T/B)', item= M73-D06 (Fab, V domains shown, HC as printed runs into CH1) VH: EVQLLESGGGLVQPGGSLRLSCAASGFTFSRYEMYWVRQAPGKGLEWVSSISSSGGPTAYADSVKGRFTISRDNSKNTLYLQMNSLRAEDTAMYYCAKGTPKWELLLRSIYIENAFDIWGQGTMVTVSS VL: QSELTQPPSASETPGQRVTISCSGSSSNIGSNTVSWFQQLPGSAPRLLIYNDHRRPSGVPDRFSGSKSGTSASLVISGLQSQDEADYYCSAWDDSLNGVVFGGGTKLTVL )
4

# get_value(readout='ELISA (T/B)', item= M12-C09 (Fab, V domains shown, HC as printed runs into CH1) VH: EVQLLESGGGLVQPGGSLRLSCAASGFTFSSYAMVWVRQAPGKGLEWVSSIGSSGGFTLYADSVKGRFTISRDNSKNTLYLQMNSLRAEDTAVYYCASMNLGGGDAFDIWGQGTMVTVSS VL: DIQMTQSPSSLSASVGDRVTITCRASQSIGIYLNWYHQKPGKAPNLLIYGASSLQSGVPSRFSGSGSGTDFTLTISSLQPGDFATYYCQHSYSTPFTFGGGTKVEIK )
7

# get_value(readout='ELISA (T/B)', item= M27-A10 (Fab, V domains shown, HC as printed runs into CH1) VH: EVQLLESGGGLVQPGGSLRLSCAASGFTFSWYRMDWVRQAPGKGLEWVSSIWPSGGLTSYADSVKGRFTISRDNSKNTLYLQMNSLRAEDTAVYYCARGWAPGGDAFDIWGQGTMVTVSS VL: DIQMTQSPSSLSASVGDRVTITCRASQSISAYLNWYQQKPGKAPQLLMYGVGSLQSGVPSRFSGSGSGTDFTLTISSLQPEDFATYFCQQGYTTPVTFGGGTKVEIK )
3.2

# get_value(readout='ELISA (T/B)', item= M76-F02 (Fab, V domains shown, HC as printed runs into CH1) VH: EVQLLESGGGLVQPGGSLRLSCAASGFTFSLYDMNWVRQAPGKGLEWVSGISPSGGQTMYADSVKGRFTISRDNSKNTLYLQMNSLRAEDTAVYYCARQPMISAFDIWGQGTMVTVSS VL: DIQMTQSPSSLSASVGDRVTITCRASQTIDNYLHWYQQKPGKAPKVLIHDASSLQSGVPPRFSGSGSGTDFTLTISSLQPEDFATYYCQQSYDTPQYTFGQGTKLEIK )
6.4

# get_value(readout='ELISA (T/B)', item= M27-B12 (Fab, V domains shown, HC as printed runs into CH1) VH: EVQLLESGGGLVQPGGSLRLSCAASGFTFSWYQMMWVRQAPGKGLEWVSSISPSGGITEYADSVKGRFTISRDNSKNTLYLQMNSLRAEDTAVYYCARDRSSGWYYYGMDVWGQGTTVTVSS VL: QYELTQPPAVSVSPGQTATITCSGDKLGDEYAAWYQQKPGQSPVLVIYQDRKRPSGIPERFSGSNFGNTATLTITGTQVMDEADYYCQAWGKRNVVFGGGTKLTVL )
2.3
